Data credit: ChEMBL document CHEMBL5223182

Molecular target: Human immunodeficiency virus type 1 protease (Human immunodeficiency virus 1, UniProt Q72874)
Experiment: Inhibition of HIV-1 protease
Measured quantity: pKi
Kindly note that pKi refers to -log10 of the concentration in mol/L and answer with the value alone.

input: Value lookup for pKi; key = `CC(C)CN(C[C@@H](O)[C@H](Cc1ccccc1)NC(=O)O[C@H]1CO[C@H]2OCC[C@H]21)S(=O)(=O)c1ccc2c(c1)C(=O)O[B-]2(O)O`
output: 11.00

###

Biological target: Human immunodeficiency virus type 1 protease (Human immunodeficiency virus 1, UniProt Q72874)
Assay: Inhibition of HIV-1 protease by fluorescence assay
Measured quantity: pKi
Kindly note that pKi refers to -log10 of the concentration in mol/L and answer with the value alone.

input: Value lookup for pKi; key = `CC(C)CN(C[C@@H](O)[C@H](Cc1ccccc1)NC(=O)O[C@H]1CO[C@H]2OCC[C@H]21)S(=O)(=O)c1ccc(B(O)O)cc1`
output: 12.30
